system: HeLa; experiment: Cytotoxicity against human HeLa cells assessed as inhibition of cell growth at 10 ug/ml incubated for 48 hrs by MTT assay; type: functional, cell-based
Active and inactive are the calls of the source. The calls are words filed in the database; no cut-off is given here.
readout: growth inhibition (GI)

- O=C1OC(c2ccccc2)=N[C@@]12[C@H](c1ccc(Cl)c(Cl)c1)[C@H]1CCCN1[C@]21C(=O)Nc2ccccc21: Active
- O=C1OC(c2ccccc2)=N[C@@]12[C@H](c1ccccc1)[C@H]1CSCN1[C@]21C(=O)Nc2ccccc21: Active
- O=C1OC(c2ccccc2)=N[C@@]12[C@H](c1cccc(Cl)c1)[C@H]1CCCN1[C@]21C(=O)Nc2ccc(Cl)cc21: Active
- O=C1OC(c2ccccc2)=N[C@@]12[C@H](c1ccc(C(F)(F)F)cc1)[C@H]1CCCN1[C@]21C(=O)Nc2ccccc21: Active
- O=C1OC(c2ccccc2)=N[C@@]12[C@H](c1ccc(Cl)c(Cl)c1)[C@H]1CCCN1[C@]21C(=O)N(Cc2ccccc2)c2ccccc21: Active
- CN1C[C@@H](c2ccco2)[C@@]2(N=C(c3ccccc3)OC2=O)[C@@]12C(=O)N(Cc1ccccc1)c1ccccc12: Active
- COc1cc([C@@H]2[C@H]3CCCN3[C@]3(C(=O)N(Cc4ccccc4)c4ccccc43)[C@]23N=C(c2ccccc2)OC3=O)cc(OC)c1OC: Active

----------
assay: cells; assay type: functional, cell-based; settings: Homo sapiens, Huh-7, 48 h
Description: Cytotoxicity against human HuH7 cells assessed as inhibition of cell growth incubated for 48 hrs by MTT assay
pIC50: −log10 of the molar value.
readout: pIC50

* O=C1OC(c2ccccc2)=N[C@@]12[C@H](c1ccc(C(F)(F)F)cc1)[C@H]1CCCN1[C@]21C(=O)Nc2ccccc21 | 5.10
* CNC(=O)c1cc(Oc2ccc(NC(=O)Nc3ccc(Cl)c(C(F)(F)F)c3)cc2)ccn1 | 5.15

----------
IC50 for assorted compounds
test system: MDA-MB-231; assay: cells; type: functional, cell-based; details: Homo sapiens, MDA-MB-231, 48 h
Description: Cytotoxicity against human MDA-MB-231 cells assessed as inhibition of cell growth incubated for 48 hrs by MTT assay
readout: IC50 (µM)

* CNC(=O)c1cc(Oc2ccc(NC(=O)Nc3ccc(Cl)c(C(F)(F)F)c3)cc2)ccn1 [SORAFENIB] | 5.1
* O=C1OC(c2ccccc2)=N[C@@]12[C@H](c1ccc(C(F)(F)F)cc1)[C@H]1CCCN1[C@]21C(=O)Nc2ccccc21 | 4.2

Values compiled from ChEMBL document CHEMBL3603792.
